# System: Escherichia coli TOP10
# experiment-notes: shrunken log2 fold change of peptide-encoding DNA abundance (4.5 h post-induction vs induction); higher = less antimicrobial activity (less host growth inhibition)
# condition-context: time post-induction: 4.5 h; library: site-saturation at positions 5, 18, 19, 20
Here, each record is paired with measured shrunken log2 fold change data.

Solved entries:
>  <item-sequence>
RRIRCRPPRLPRPRPRPMHKPRP

>  <target-or-system>
Escherichia coli TOP10

>  <shrunken log2 fold change>
-0.203

$$$$
>  <item-sequence>
RRIRWRPPRLPRPRPRPYNCPRP

>  <target-or-system>
Escherichia coli TOP10

>  <shrunken log2 fold change>
-0.331

$$$$
>  <item-sequence>
RRIRERPPRLPRPRPRPQPTPRP

>  <target-or-system>
Escherichia coli TOP10

>  <shrunken log2 fold change>
0.234

$$$$
>  <item-sequence>
RRIRHRPPRLPRPRPRPVIQPRP

>  <target-or-system>
Escherichia coli TOP10

>  <shrunken log2 fold change>
-0.00152

$$$$
>  <item-sequence>
RRIRLRPPRLPRPRPRPECYPRP

>  <target-or-system>
Escherichia coli TOP10

>  <shrunken log2 fold change>
-0.235

$$$$

Task: Write down the reported shrunken log2 fold change of `RRIRIRPPRLPRPRPRPYGQPRP` , test system: Escherichia coli TOP10.
Result: -0.284

Task: Write down the reported shrunken log2 fold change of `RRIRQRPPRLPRPRPRPVFLPRP` , test system: Escherichia coli TOP10.
Result: -0.218

Task: Write down the reported shrunken log2 fold change of `RRIRARPPRLPRPRPRPSGTPRP` , test system: Escherichia coli TOP10.
Result: -0.0328

Task: Write down the reported shrunken log2 fold change of `RRIRTRPPRLPRPRPRPSQQPRP` , test system: Escherichia coli TOP10.
Result: 0.117

Task: Write down the reported shrunken log2 fold change of `RRIRLRPPRLPRPRPRPRWIPRP` , test system: Escherichia coli TOP10.
Result: -0.074

Task: Write down the reported shrunken log2 fold change of `RRIRRRPPRLPRPRPRPAHLPRP` , test system: Escherichia coli TOP10.
Result: 0.178

Task: Write down the reported shrunken log2 fold change of `RRIRWRPPRLPRPRPRPNIEPRP` , test system: Escherichia coli TOP10.
Result: -0.0429

Task: Write down the reported shrunken log2 fold change of `RRIRCRPPRLPRPRPRPCLGPRP` , test system: Escherichia coli TOP10.
Result: -0.224

Task: Write down the reported shrunken log2 fold change of `RRIRERPPRLPRPRPRPEPKPRP` , test system: Escherichia coli TOP10.
Result: 0.0877

Task: Write down the reported shrunken log2 fold change of `RRIRMRPPRLPRPRPRPINKPRP` , test system: Escherichia coli TOP10.
Result: -0.375

Task: Write down the reported shrunken log2 fold change of `RRIRMRPPRLPRPRPRPITCPRP` , test system: Escherichia coli TOP10.
Result: -0.0534

Task: Write down the reported shrunken log2 fold change of `RRIRLRPPRLPRPRPRPDLVPRP` , test system: Escherichia coli TOP10.
Result: 0.00214

Task: Write down the reported shrunken log2 fold change of `RRIRVRPPRLPRPRPRPNYMPRP` , test system: Escherichia coli TOP10.
Result: -0.923

Task: Write down the reported shrunken log2 fold change of `RRIRHRPPRLPRPRPRPKSHPRP` , test system: Escherichia coli TOP10.
Result: 0.77

Task: Write down the reported shrunken log2 fold change of `RRIRKRPPRLPRPRPRPVNSPRP` , test system: Escherichia coli TOP10.
Result: 0.0157

Task: Write down the reported shrunken log2 fold change of `RRIRQRPPRLPRPRPRPGKQPRP` , test system: Escherichia coli TOP10.
Result: -0.117

Task: Write down the reported shrunken log2 fold change of `RRIRSRPPRLPRPRPRPCFHPRP` , test system: Escherichia coli TOP10.
Result: -0.749

Task: Write down the reported shrunken log2 fold change of `RRIRCRPPRLPRPRPRPTYKPRP` , test system: Escherichia coli TOP10.
Result: -0.267

Task: Write down the reported shrunken log2 fold change of `RRIRVRPPRLPRPRPRPQTAPRP` , test system: Escherichia coli TOP10.
Result: 0.0297

Task: Write down the reported shrunken log2 fold change of `RRIRQRPPRLPRPRPRPMDFPRP` , test system: Escherichia coli TOP10.
Result: 0.015

Task: Write down the reported shrunken log2 fold change of `RRIRFRPPRLPRPRPRPMLKPRP` , test system: Escherichia coli TOP10.
Result: -0.527

Task: Write down the reported shrunken log2 fold change of `RRIRPRPPRLPRPRPRPQKNPRP` , test system: Escherichia coli TOP10.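 Further: peptides expressed intracellularly from a pBAD plasmid library in pooled LB shake-flask culture, induced with 0.3% L-arabinose, DNA abundance read by NGS, three biological replicates, DESeq2 with apeglm shrinkage.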
Result: -0.169
